assay overview: RP, Thermo Scientific Acclaim RSLC 120 C18, 100 × 2.1 mm, 2.2 µm, 30 °C, 0.2 mL/min, estimated dead time 1.1 min; A: 90% water + 10% methanol + 0.01% formic acid + 5 mM ammonium formate, pH 3.61; B: methanol + 0.01% formic acid + 5 mM ammonium formate, pH 3.61; gradient (min/%B) 0/1 1/1 2/39 13/99.9 15/99.9 15.1/1 20.1/1
stated conditions: stereoisomer not certain
Assign 1 to entries whose LC retention time meets or exceeds 10 min; assign 0 to the rest.

INSERT INTO measurements (molecule, answer_label) VALUES
  ('CC1(C)CC(N)CC(C)(CN)C1 (centres undefined)', 0),
  ('CCCCCCCCCCCC[N+](CCO)(CCO)Cc1ccccc1', 1),
  ('C#CCOS(=O)OC1CCCCC1Oc1ccc(C(C)(C)C)cc1 (centres undefined)', 1),
  ('CCNC1(c2cccc(OC)c2)CCCCC1=O (centres undefined)', 0),
  ('CCOP(=S)(OCC)Oc1ccc(S(C)(=O)=O)cc1', 0),
  ('Cc1c(COC(=O)C2C(C=C(Cl)C(F)(F)F)C2(C)C)cccc1-c1ccccc1 (centres undefined)', 1),
  ('CC(C)NCC(O)COc1ccc(CC(=O)O)cc1 (centres undefined)', 0),
  ('CCCCCCCCCCCCN=C(N)N', 1),
  ('CCCCCn1nc(C(=O)NC(C(N)=O)C(C)C)c2ccccc21 (centres undefined)', 1);
